- MEASUREMENT TARGET: T1, recombinant human IgE (human, UniProt P01854-1 1-428)
- T1 construct: made in-house (ALK); preloaded on immobilised FcεRIα in the displacement ELISA
- T1 sequence (P01854 other isoform, or with tags, fused parts or gaps): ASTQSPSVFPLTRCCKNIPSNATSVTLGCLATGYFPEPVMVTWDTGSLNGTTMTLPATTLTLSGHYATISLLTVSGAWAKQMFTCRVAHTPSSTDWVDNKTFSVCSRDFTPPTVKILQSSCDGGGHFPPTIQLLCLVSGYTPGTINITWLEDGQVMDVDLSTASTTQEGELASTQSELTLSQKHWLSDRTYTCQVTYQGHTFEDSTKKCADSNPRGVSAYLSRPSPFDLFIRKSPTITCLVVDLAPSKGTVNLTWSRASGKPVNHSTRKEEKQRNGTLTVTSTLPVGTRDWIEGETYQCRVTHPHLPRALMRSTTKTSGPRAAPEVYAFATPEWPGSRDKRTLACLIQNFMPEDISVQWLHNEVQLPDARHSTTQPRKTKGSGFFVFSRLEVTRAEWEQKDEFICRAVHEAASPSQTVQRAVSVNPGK
- TEST PROTOCOL: IgE-FcεRIα displacement ELISA
# maps each entry to its Max effect

B1A1(G4S)4 (bispecific antibody, two sdAbs linked by a peptide linker) QVQLQESGGGLVQTGGSLRLSCAVHGRTFSNTGMGWFRQAPGNERQFVAIISPSGTSTYYADSVKGRFTISRDPAKNTVYLQMNSLKMDDTAVYYCAASYGSNWSTLRHQRRNEYDAWGQGTQVAVSGGGGSGGGGSGGGGSGGGGSEVQLLESGGGLVQPGGSLRLSCAASGFTFGNYDMAWVRQAPGKRPEWVSSIDTGGDITHYADSVKGRFTISRDNAKNTLYLQMNSLRPEDTAVYWCATDEEYALGPNEFDYYGQGTLVTVS : > 95%

Kindly consider the entry below.
Query: Return reported Max effect. Input binder: D2A1(G4S)4 (bispecific antibody) DVQLQESGGGLVEAGGSLRLSCVASGRTFSGWSMGWFRQAPGKEREFVAAISWVGSWIGGTVYSNSVKGRFTISRDNARTTVYLQMNSLKPEDTAVYFCAAANSETPRIFASEYDYWGQGTQVTVSGGGGSGGGGSGGGGSGGGGSEVQLLESGGGLVQPGGSLRLSCAASGFTFGNYDMAWVRQAPGKRPEWVSSIDTGGDITHYADSVKGRFTISRDNAKNTLYLQMNSLRPEDTAVYWCATDEEYALGPNEFDYYGQGTLVTVS
Response: > 95%
